Cited source for all entries: the supplement of paper PMC5998384

tested on: HeLa Kyoto; experiment: melting temperature (median over replicates), in situ; higher = more thermally stable; details: cell cycle stage: G1/S

biopolymer.sequence: MAERQEEQRGSPPLRAEGKADAEVKLILYHWTHSFSSQKVRLVIAEKALKCEEHDVSLPLSEHNEPWFMRLNSTGEVPVLIHGENIICEATQIIDYLEQTFLDERTPRLMPDKESMYYPRVQHYRELLDSLPMDAYTHGCILHPELTVDSMIPAYATTRIRSQIGNTESELKKLAEENPDLQEAYIAKQKRLKSKLLDHDNVKYLKKILDELEKVLDQVETELQRRNEETPEEGQQPWLCGESFTLADVSLAVTLHRLKFLGFARRNWGNGKRPNLETYYERVLKRKTFNKVLGHVNNILISAVLPTAFRVAKKRAPKVLGTTLVVGLLAGVGYFAFMLFRKRLGSMILAFRPRPNYF [GDAP1]
system.name: HeLa Kyoto
unit.name: °C
melting temperature: 54

biopolymer.sequence: MTVARPSVPAALPLLGELPRLLLLVLLCLPAVWGDCGLPPDVPNAQPALEGRTSFPEDTVITYKCEESFVKIPGEKDSVICLKGSQWSDIEEFCNRSCEVPTRLNSASLKQPYITQNYFPVGTVVEYECRPGYRREPSLSPKLTCLQNLKWSTAVEFCKKKSCPNPGEIRNGQIDVPGGILFGATISFSCNTGYKLFGSTSSFCLISGSSVQWSDPLPECREIYCPAPPQIDNGIIQGERDHYGYRQSVTYACNKGFTMIGEHSIYCTVNNDEGEWSGPPPECRGKSLTSKVPPTVQKPTTVNVPTTEVSPTSQKTTTKTTTPNAQATRSTPVSRTTKHFHETTPNKGSGTTSGTTRLLSGHTCFTLTGLLGTLVTMGLLT [CD55]
system.name: HeLa Kyoto;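 note: HeLa Kyoto cells synchronized by double thymidine or nocodazole block, proteins quantified by TMT10plex mass spectrometry, three independent biological replicates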
unit.name: °C
melting temperature: 63.5
